Biological target: monkey chymase (Macaca fascicularis, UniProt P56435)
Construct: chymase was extracted from homogenized monkey cheek pouch and stomach; from tissue; host or cells: monkey cheek pouch and stomach
Sequence (P56435 22-247): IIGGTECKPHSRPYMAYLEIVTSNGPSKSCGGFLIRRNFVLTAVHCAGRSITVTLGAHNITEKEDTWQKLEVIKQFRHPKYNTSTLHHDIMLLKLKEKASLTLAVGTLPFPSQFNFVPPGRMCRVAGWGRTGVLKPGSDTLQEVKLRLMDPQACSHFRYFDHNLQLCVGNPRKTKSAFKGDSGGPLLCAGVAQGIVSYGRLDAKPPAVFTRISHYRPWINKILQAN
Assay: Monkey chymase inhibitory activity (in vitro, angiotensin I substrate)
Type: biochemical
Conditions: chymase purified from monkey cheek pouch and stomach; substrate angiotensin I; 37° C.; read-out: Monkey Chymase Inhibition (IC50:nM)
Rule: measured IC50 below 200 nM gets 1 (yes); anything equal to or greater than 200 nM gets 0 (no).

The following compounds have reported results that may help.
INSERT INTO assay_data (compound, answer_label) VALUES
  ('CC(C)[C@H](NC(=O)c1cccnc1Oc1ccccc1)C(=O)N1CCC[C@H]1C(=O)NC(Cc1csc2ccccc12)C(=O)C(F)(F)F (stereo partly shown)', '0 (no)'),
  ('Cc1nsc(C(=O)N[C@H](C(=O)N2CCC[C@H]2C(=O)NC(Cc2cc3ccccc3s2)C(=O)C(F)(F)F)C(C)C)n1 (stereo partly shown)', '0 (no)'),
  ('CC(C)[C@H](NC(=O)CN1CCN(Cc2ccccc2)C1=O)C(=O)N1CCC[C@H]1C(=O)NC(Cc1cc2ccccc2s1)C(=O)C(F)(F)F (stereo partly shown)', '0 (no)'),
  ('CC(C)[C@H](NC(=O)CN1CCN(CC(=O)OC(C)(C)C)C1=O)C(=O)N1CCC[C@H]1C(=O)NC(Cc1ccc2ccccc2c1)C(=O)C(F)(F)F (stereo partly shown)', '1 (yes)'),
  ('CC(C)(C)OC(=O)Cn1c(=O)ccn(CC(=O)N[C@@H](CC2CCCCC2)C(=O)N2CCC[C@H]2C(=O)NC(Cc2ccccc2)C(=O)C(F)(F)F)c1=O (stereo partly shown)', '0 (no)'),
  ('Cc1snnc1C(=O)N[C@H](C(=O)N1CCC[C@H]1C(=O)NC(Cc1cc2ccccc2s1)C(=O)C(F)(F)F)C(C)C (stereo partly shown)', '1 (yes)');

Okay, now this compound:
Exercise: I'd appreciate it if you could check whether Cc1nsc(C)c1C(=O)N[C@H](C(=O)N1CCC[C@H]1C(=O)NC(Cc1cc2ccccc2s1)C(=O)C(F)(F)F)C(C)C (stereo partly shown) has IC50 smaller than 200 nM.
Key: 1 (yes)
